Test: Trypanosoma cruzi growth suppression in host cells – NIH3T3 host cells, beta-gal luminescence, confirmation (AID 2044);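 further: intracellular parasites grown in NIH/3T3 mouse fibroblasts as host cells; luminescent beta-galactosidase reporter signal from transgenic T. cruzi replicating inside host cells; inhibitors lower the luminescence signal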
Type: functional, cell-based
The source made the active and inactive calls.
test.readout: EC50

Look at this compound and give its reported EC50. COC(=O)c1ccc(COc2ccc(/C=N/NC(N)=S)cc2)o1 1.39 µM (active)

Record: O=C(N/N=C/C=C(\O)c1ccc([N+](=O)[O-])cc1)c1ccccc1 2.02 µM (active)

// next record Cc1c(C(=O)c2cccc3ccccc23)c2cccc3c2n1[C@H](CN1CCOCC1)CO3 0.887 µM (active)

---

Target: Heat shock protein HSP 90-alpha (Homo sapiens, UniProt P07900)
Assay type: functional, organism-based
Calls of active or inactive are those of the source.
Could you please report measured AC50 for the items listed next?

Consider the molecule CCOC(=O)c1sc(-c2ccc(C(F)(F)F)cc2)nc1O and give its measured AC50. 3.14 µM (active)

Moving on to the next molecule: OCCCn1c(C2CCCN2c2nc(-c3ccc(F)cc3)cs2)nc2cc(Cl)c(Cl)cc21 (stereo not given) 5.05 µM (active)

Subsequent entry: CC[C@@H]1Cc2cc(O)ccc2C2=C1c1ccc(O)cc1C[C@H]2CC 6.32 µM (active)

Can you handle c1cnc2c(c1)ccc1cccnc12 [PHENANTHROLINE] next? 7.11 µM (active)

Another molecule to check: Oc1ccc(-c2c(-c3ccsc3)sc3ccccc23)cc1 3.3 µM (active)

Source: ChEMBL document CHEMBL1201862
